This section presents compounds with their documented GI50 values.
# Tested on: IGROV-1
# methodSummary: NCI tumour cell line growth inhibition, 48 h
Activity calls are given as the source filed them. Cut-off read from the data, not from the text of the source: active = GI50 up to about 1.1 µM and inactive = higher.

# count of solved cases: 4
| compound | valueMeasured |
| --- | --- |
| O=C(CCc1nnc2s/c(=C\c3ccccc3Cl)c(=O)n12)Nc1cc(Cl)ccc1Cl | > 100 µM (inactive) |
| COc1ccc([C@H]2CC3C(=O)N(c4ccc(OC)cc4)C(=O)C3c3[nH]c4ccccc4c32)cc1 (stereo partly specified) | > 100 µM (inactive) |
| NC1Cc2ccccc2OC1=O (stereo unspecified) | > 100 µM (inactive) |
| O=C(CSCC(=O)N/N=C/c1ccncc1)N/N=C/c1ccncc1 | > 100 µM (inactive) |

Looking for the measured GI50 of COc1ccc2nc3cc(Cl)ccc3c(Nc3ccc(O)c(CN4CCN(C)CC4)c3)c2c1 , can you help? 1.71 µM (inactive)

Please answer likewise for COC(=O)C1=C(C)N2[C@H](C(=O)O)CS[C@@]2(C)[C@H](C(=O)OC)[C@H]1c1cccc([N+](=O)[O-])c1 > 100 µM (inactive)

---

# Test system: RPMI-8226
# methodSummary: NCI tumour cell line growth inhibition, 48 h
Active and inactive are the calls of the source. Cut-off read from the data, not from the text of the source: active = GI50 up to about 1.1 µM and inactive = higher.
outcomeMeasure: GI50

# count of solved cases: 4
| compound | outcomeMeasure | valueMeasured |
| --- | --- | --- |
| NCCCCNCCCNC(=O)c1nc(-c2csc(CCN)n2)sc1Cl | GI50 | > 100 µM (inactive) |
| CC(C)Cn1cnnc1NS(=O)(=O)c1cc(C(=O)NN)c(Cl)cc1S | GI50 | > 10 µM (inactive) |
| NC1CC(=O)c2c(Cl)sc(Cl)c21 (configuration not stated) | GI50 | 2.37 µM (inactive) |
| C[n+]1c2ccccc2c(NC(CCCNC(=N)N)C(=O)O)c2ccccc21 (configuration not stated) | GI50 | 7.55 µM (inactive) |

Looking for the measured GI50 of CC1(C)N=C(/C=N/O)C(C)(C)N1O , can you help? > 100 µM (inactive)

Please answer likewise for CC/C(SC)=[N+](\C)[O-] > 93.1 µM (inactive)

Please answer likewise for COC(=O)c1c2c(cc3c1CC1(C3)Cc3cc4c(c(C(=O)OC)c3C1)CCC4)CCC2 > 100 µM (inactive)

Please answer likewise for CN(C)c1cccc(NC2=NCCO2)c1 65.5 µM (inactive)

Please answer likewise for O=C1c2ccccc2C(=O)c2c1ccc(C1C(=O)c3ccccc3C1=O)c2-c1c(C2C(=O)c3ccccc3C2=O)ccc2c1C(=O)c1ccccc1C2=O 13.1 µM (inactive)

---

# System: IGROV-1
# methodSummary: NCI tumour cell line growth inhibition, 48 h
Activity calls are given as the source filed them. Cut-off read from the data, not from the text of the source: active = GI50 up to about 1.1 µM and inactive = higher.
outcomeMeasure: GI50

# count of solved cases: 2
| molecule | outcomeMeasure | valueMeasured |
| --- | --- | --- |
| Clc1ccc2cccc3c2c1C1OC3c2ccccc21 (stereo not drawn) | GI50 | > 100 µM (inactive) |
| O=C(c1cscc1CCc1ccccc1)c1cscc1CCc1ccccc1 | GI50 | 31.6 µM (inactive) |

Looking for the measured GI50 of COc1ccc(NC(C)=O)cc1C1CCC(=O)N1 (stereo not drawn) , can you help? > 100 µM (inactive)

---

This section presents compounds with their documented GI50 values.
# Test system: SNB-75
# methodSummary: NCI tumour cell line growth inhibition, 48 h
Activity calls are given as the source filed them. Cut-off read from the data, not from the text of the source: active = GI50 up to about 1.1 µM and inactive = higher.

# count of solved cases: 5
| compound | GI50 |
| --- | --- |
| c1ccc2c(c1)N=c1cc3c(cc1N2)=NC12CCCCC1CC1=C(CCCC1)N32 (stereo unspecified) | 2.59 µM (inactive) |
| Nc1nc(Cl)cc(NC2(CO)CCC2)n1 | > 100 µM (inactive) |
| Cn1cc(C(=O)C2CCCCC2)ccc1=O | > 100 µM (inactive) |
| O=C(O)C1c2ccccc2C(C(=O)O)c2ccccc21 (stereo unspecified) | > 100 µM (inactive) |
| COC(=O)Cc1c(-c2[nH]c3ccccc3c2CC(=O)OC)[nH]c2ccccc12 | > 57.4 µM (inactive) |

Then this compound:
Looking for the measured GI50 of CCOC(=O)C(=O)Nc1c(CC)cccc1C(C)C , can you help? > 100 µM (inactive)

Origin of the recorded values: ChEMBL document CHEMBL1201862
